All values here come from ChEMBL document CHEMBL4385641.

Target under test: Cannabinoid receptor 2 (Homo sapiens)
Protocol description: Displacement of [3H]-CP55940 from human CB2 receptor expressed in CHO cell membranes
Applied conditions: cho
pKi: −log10 of the molar value.
Assay endpoint: pKi

For this molecule ( O/N=C(\c1ccc(F)cc1)C1CCN(c2ncnc3c2nc(-c2ccccc2Cl)n3-c2ccc(Cl)cc2)CC1 (stereo in doubt; 21) ), measured pKi is < 5.00

====

// Cmax lookup, one value per entry
Protocol description: Cmax in C57BL6 mouse plasma at […], po by LC-MS/MS analysis
Assay type: ADME, organism-based
Parameters: dose 2.5 mg/kg, route oral
Give the number; ng/mL is assumed, so skip it.

For this compound ( O=S(=O)(NC1CCN(c2ncnc3c2nc(-c2ccccc2Cl)n3-c2ccc(Cl)cc2)CC1)c1ccc(F)c(F)c1 ), measured Cmax is 12

For this compound ( Clc1ccc(-n2c(-c3ccccc3Cl)nc3c(N4CCC(Nc5ccccn5)CC4)ncnc32)cc1 ), measured Cmax is 38

For this compound ( N=C(NC1CCN(c2ncnc3c2nc(-c2ccccc2Cl)n3-c2ccc(Cl)cc2)CC1)c1ccc(F)cc1 ), measured Cmax is 50

For this compound ( O=S(=O)(NC1CCN(c2ncnc3c2nc(-c2ccccc2Cl)n3-c2ccc(OC(F)F)nc2)CC1)c1ccc(F)c(F)c1 ), measured Cmax is 62

====

// half-life lookup, one value per entry
Protocol description: Half life in C57BL6 mouse plasma at […], po by LC-MS/MS analysis
Type: ADME, organism-based
Give the number; h is assumed, so skip it.

Input smiles	half-life, h
N=C(NC1CCN(c2ncnc3c2nc(-c2ccccc2Cl)n3-c2ccc(Cl)cc2)CC1)c1ccc(F)cc1	6
O=S(=O)(NC1CCN(c2ncnc3c2nc(-c2ccccc2Cl)n3-c2ccc(Cl)cc2)CC1)c1ccc(F)c(F)c1	5.3
O=S(=O)(NC1CCN(c2ncnc3c2nc(-c2ccccc2Cl)n3-c2ccc(OC(F)F)nc2)CC1)c1ccc(F)c(F)c1	1.6

For this compound ( Clc1ccc(-n2c(-c3ccccc3Cl)nc3c(N4CCC(Nc5ccccn5)CC4)ncnc32)cc1 ), measured half-life is 7.4

====

// Ki lookup, one value per entry
Target under test: Cannabinoid receptor 2 (Homo sapiens)
Protocol description: Displacement of [3H]-CP55940 from human CB2 receptor expressed in CHO cell membranes
Give the number; µM is assumed, so skip it.

Input smiles	Experimental value
Clc1ccc(-n2c(-c3ccccc3Cl)nc3c(N4CCC(c5nc6ccccc6[nH]5)CC4)ncnc32)cc1	0.83

We next turn to a different molecule, shown below.
Field Ki (Cannabinoid receptor 2 (Homo sapiens)), entry O=C(NC1CCN(c2ncnc3c2nc(-c2ccccc2Cl)n3-c2ccc(Cl)cc2)CC1)c1ccccc1F : 6

====

// log10 Ke(app) lookup, one value per entry
Target under test: Cannabinoid receptor 1 (Homo sapiens)
Protocol description: Inverse agonist activity at human CB1 receptor expressed in CHOK1 cells co-expressing Galphaq16 assessed as apparent equilibrium constant after 90 secs by […]-4 AM dye-based FLIPR assay
Assay type: cell-based
Record value = log10 of Ke(app) given in nM.

Answered examples (6):
Input smiles	Target under test	Experimental value
O=S(=O)(NC1CCN(c2ncnc3c2nc(-c2ccccc2Cl)n3-c2ccc(Cl)cc2)CC1)c1ccc(F)cc1F	Cannabinoid receptor 1 (Homo sapiens)	0.30
COCCOC(=O)NC1CCN(c2ncnc3c2nc(-c2ccccc2Cl)n3-c2ccc(Cl)cc2)CC1	Cannabinoid receptor 1 (Homo sapiens)	0.78
CS(=O)(=O)CCC(=O)NC1CCN(c2ncnc3c2nc(-c2ccccc2Cl)n3-c2ccc(Cl)cc2)CC1	Cannabinoid receptor 1 (Homo sapiens)	3.78
O=C(NC1CCN(c2ncnc3c2nc(-c2ccccc2Cl)n3-c2ccc(C(F)(F)F)nc2)CC1)c1ccccc1	Cannabinoid receptor 1 (Homo sapiens)	1.28
CC(C)(O)CC(=O)NC1CCN(c2ncnc3c2nc(-c2ccccc2Cl)n3-c2ccc(Cl)cc2)CC1	Cannabinoid receptor 1 (Homo sapiens)	3.23
CCCCC(=O)NC1CCN(c2ncnc3c2nc(-c2ccccc2Cl)n3-c2ccc(C(F)(F)F)nc2)CC1	Cannabinoid receptor 1 (Homo sapiens)	0.60

Field log10 Ke(app) (Cannabinoid receptor 1 (Homo sapiens)), entry N=C(Nc1ccc(F)cc1)NC1CCN(c2ncnc3c2nc(-c2ccccc2Cl)n3-c2ccc(Cl)cc2)CC1 : 2.48

====

Protocol description: Half life in human liver microsomes at 1 uM by mass mass spectrometric method
Type: ADME, Microsome
Applied conditions: liver microsomes
Assay endpoint: half-life at 1 µM (h)
Give the number; h is assumed, so skip it.

For this compound ( O/N=C(\c1ccc(F)cc1)C1CCN(c2ncnc3c2nc(-c2ccccc2Cl)n3-c2ccc(Cl)cc2)CC1 (stereo in doubt; 20) ), measured half-life at 1 µM is 1.1

====

Protocol description: Intrinsic clearance in human liver microsomes at 1 uM incubated for up to 120 mins by mass mass spectrometric method
Format: ADME, Microsome
Applied conditions: liver microsomes, read-out: CLH
Assay endpoint: microsomal CLint at 1 µM (µL/min/mg)
Give the number; µL/min/mg is assumed, so skip it.

For this compound ( O/N=C(\c1ccc(F)cc1)C1CCN(c2ncnc3c2nc(-c2ccccc2Cl)n3-c2ccc(Cl)cc2)CC1 (stereo in doubt; 20) ), measured microsomal CLint at 1 µM is 19

====

Target under test: Cannabinoid receptor 1 (Homo sapiens, UniProt P21554)
Sequence (P21554 whole entry): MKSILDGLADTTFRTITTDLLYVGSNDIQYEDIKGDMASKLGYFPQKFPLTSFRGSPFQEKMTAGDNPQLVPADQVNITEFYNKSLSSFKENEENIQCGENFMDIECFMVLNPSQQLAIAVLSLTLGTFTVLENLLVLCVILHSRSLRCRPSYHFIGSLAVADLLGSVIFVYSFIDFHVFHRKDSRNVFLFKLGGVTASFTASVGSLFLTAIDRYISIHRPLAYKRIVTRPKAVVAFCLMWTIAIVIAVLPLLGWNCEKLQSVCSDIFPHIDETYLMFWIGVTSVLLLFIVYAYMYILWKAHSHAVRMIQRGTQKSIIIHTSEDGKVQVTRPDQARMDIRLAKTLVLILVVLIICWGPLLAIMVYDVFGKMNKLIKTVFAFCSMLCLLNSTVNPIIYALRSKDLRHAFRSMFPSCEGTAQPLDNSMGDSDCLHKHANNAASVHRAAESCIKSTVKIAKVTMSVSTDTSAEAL
Protocol description: Inverse agonist activity at human CB1 receptor expressed in CHOK1 cells co-expressing Galphaq16 assessed as apparent equilibrium constant after 90 secs by […]-4 AM dye-based FLIPR assay
Type: cell-based
// log10(Ke(app)) lookup, one value per entry
Record value = log10 of Ke(app) given in nM.

Answered examples (5):
Compound	log10(Ke(app))
CC(C(=O)NC1CCN(c2ncnc3c2nc(-c2ccccc2Cl)n3-c2ccc(Cl)cc2)CC1)c1ccccc1 (configuration not stated)	0.30
NC(=O)c1ccc(-n2c(-c3ccccc3Cl)nc3c(N4CCC(NS(=O)(=O)c5ccc(F)c(F)c5)CC4)ncnc32)cc1	2.52
Clc1ccc(-n2c(-c3ccccc3Cl)nc3c(N4CCC(NCc5ccccc5)CC4)ncnc32)cc1	2.18
O=C(NC1CCN(c2ncnc3c2nc(-c2ccccc2Cl)n3-c2ccc(Cl)cc2)CC1)c1ccccc1F	-0.22
O=S(=O)(NC1CCN(c2ncnc3c2nc(-c2ccccc2Cl)n3-c2ccc(Cl)cc2)CC1)c1ccccc1F	-0.10

For this compound ( Cc1cc(-n2c(-c3ccccc3Cl)nc3c(N4CCC(NS(=O)(=O)c5ccc(F)c(F)c5)CC4)ncnc32)no1 ), measured log10(Ke(app)) is 1.75

For this compound ( O=C(NC1CCN(c2ncnc3c2nc(-c2ccccc2Cl)n3-c2ccc(Cl)cc2)CC1)c1ccc(F)cc1 ), measured log10(Ke(app)) is 0.04

For this compound ( O=C(CN1CCCCC1)NC1CCN(c2ncnc3c2nc(-c2ccccc2Cl)n3-c2ccc(Cl)cc2)CC1 ), measured log10(Ke(app)) is 2.34

For this compound ( Clc1ccc(-n2c(-c3ccccc3Cl)nc3c(N4CCC(Nc5ncccn5)CC4)ncnc32)cc1 ), measured log10(Ke(app)) is 1.63

For this compound ( O/N=C(\c1ccc(F)cc1)C1CCN(c2ncnc3c2nc(-c2ccccc2Cl)n3-c2ccc(Cl)cc2)CC1 (stereo in doubt; 20) ), measured log10(Ke(app)) is 1.30

====

Target under test: Cannabinoid receptor 2 (Homo sapiens, UniProt P34972)
Sequence (P34972 whole entry): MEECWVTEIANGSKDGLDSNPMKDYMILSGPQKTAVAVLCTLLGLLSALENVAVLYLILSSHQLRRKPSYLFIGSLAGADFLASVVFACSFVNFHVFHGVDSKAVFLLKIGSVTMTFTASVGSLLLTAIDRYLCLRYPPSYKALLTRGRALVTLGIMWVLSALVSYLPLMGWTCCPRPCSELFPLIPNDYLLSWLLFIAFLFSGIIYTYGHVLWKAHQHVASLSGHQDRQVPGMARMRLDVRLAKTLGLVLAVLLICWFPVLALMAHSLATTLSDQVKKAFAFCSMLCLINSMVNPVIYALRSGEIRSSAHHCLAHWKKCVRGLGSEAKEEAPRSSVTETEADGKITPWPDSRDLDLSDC
Protocol description: Displacement of [3H]-CP55940 from human CB2 receptor expressed in CHO cell membranes
pKi: −log10 of the molar value.
Everything with pKi lower than 6 is criterion not met; everything else, including exactly 6, is criterion met.

Is the recorded value of pKi equal to or greater than 6 for this compound? O=S(=O)(NC1CCN(c2ncnc3c2nc(-c2ccccc2Cl)n3-c2ccc(C(F)(F)F)nc2)CC1)c1ccc(F)c(F)c1
criterion not met

====

// Ratio lookup, one value per entry
Protocol description: Ratio of Cmax in brain to plasma in C57BL6 mouse at […], po by LC-MS/MS analysis
Type: ADME, organism-based
Give the figure only, with no unit attached.

Input smiles	Experimental value
Clc1ccc(-n2c(-c3ccccc3Cl)nc3c(N4CCC(Nc5ccccn5)CC4)ncnc32)cc1	0.45
O=S(=O)(NC1CCN(c2ncnc3c2nc(-c2ccccc2Cl)n3-c2ccc(Cl)cc2)CC1)c1ccc(F)c(F)c1	0.31
N=C(NC1CCN(c2ncnc3c2nc(-c2ccccc2Cl)n3-c2ccc(Cl)cc2)CC1)c1ccc(F)cc1	0.16

We next turn to a different compound, shown below.
For this compound ( O=S(=O)(NC1CCN(c2ncnc3c2nc(-c2ccccc2Cl)n3-c2ccc(OC(F)F)nc2)CC1)c1ccc(F)c(F)c1 ), measured Ratio is 0.18

====

// Ki lookup, one value per entry
Target under test: Cannabinoid receptor 2 (Homo sapiens, UniProt P34972)
Protocol description: Displacement of [3H]-CP55940 from human CB2 receptor expressed in CHO cell membranes
Give the number; µM is assumed, so skip it.

For this compound ( O=S(=O)(NC1CCN(c2ncnc3c2nc(-c2ccccc2Cl)n3-c2ccc(Cl)cc2)CC1)c1ccc(F)cc1 ), measured Ki is 9

For this compound ( CCCCCS(=O)(=O)NC1CCN(c2ncnc3c2nc(-c2ccccc2Cl)n3-c2ccc(Cl)cc2)CC1 ), measured Ki is 0.57

For this compound ( O=C(NC1CCN(c2ncnc3c2nc(-c2ccccc2Cl)n3-c2ccc(C(F)(F)F)nc2)CC1)c1ccccc1 ), measured Ki is 0.74

For this compound ( O=C(NC1CCN(c2ncnc3c2nc(-c2ccccc2Cl)n3-c2ccc(Cl)cc2)CC1)OC1CCC1 ), measured Ki is 1.05
